Measured IC50 accompanies every entry in the list below.
TARGET: 15-LOX (Glycine max)
Construct: purchased Merck, Darmstadt, Germany
Sequence (P08170 1-839): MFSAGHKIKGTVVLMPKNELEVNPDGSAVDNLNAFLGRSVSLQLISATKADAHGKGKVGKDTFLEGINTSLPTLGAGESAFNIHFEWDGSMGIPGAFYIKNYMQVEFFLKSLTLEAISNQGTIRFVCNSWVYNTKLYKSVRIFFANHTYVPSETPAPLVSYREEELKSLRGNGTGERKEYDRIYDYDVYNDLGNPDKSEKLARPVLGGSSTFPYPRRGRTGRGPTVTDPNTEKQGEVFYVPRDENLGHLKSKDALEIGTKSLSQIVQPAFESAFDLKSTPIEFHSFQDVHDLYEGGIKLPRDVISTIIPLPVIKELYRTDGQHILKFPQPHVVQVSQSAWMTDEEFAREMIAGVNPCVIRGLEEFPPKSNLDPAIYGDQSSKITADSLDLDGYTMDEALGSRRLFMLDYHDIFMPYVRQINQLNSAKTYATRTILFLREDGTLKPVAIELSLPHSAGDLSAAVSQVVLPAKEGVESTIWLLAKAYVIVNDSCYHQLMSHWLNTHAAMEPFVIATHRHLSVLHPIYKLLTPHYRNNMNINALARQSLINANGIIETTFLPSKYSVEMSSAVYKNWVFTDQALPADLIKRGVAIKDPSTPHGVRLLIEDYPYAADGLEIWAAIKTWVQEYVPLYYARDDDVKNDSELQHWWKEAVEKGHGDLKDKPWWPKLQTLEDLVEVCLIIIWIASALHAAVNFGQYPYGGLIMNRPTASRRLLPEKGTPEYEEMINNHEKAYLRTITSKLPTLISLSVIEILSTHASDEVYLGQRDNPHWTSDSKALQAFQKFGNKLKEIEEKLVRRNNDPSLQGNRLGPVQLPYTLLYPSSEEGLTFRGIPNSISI
TEST DESCRIPTION: Soybean 15-LOX inhibitory assay (FOX)
Type: biochemical
SETUP CONDITIONS: linoleic acid 140 μM, pH 7.4, 25°C; read-out: IC50 values 15-LOX (converted)
Protocol: This assay is based on the formation of the Fe^3+/xylenol orange (FOX) complex with maximal absorption at 560 nm ([Pinto et al., 2007]). […] Finally, the absorbance was measured at 560 nm on a microplate reader (Epoch, BioTek, Winooski, United States of America). […] The 15-LOX inhibitory activity was calculated by using the following formula: 15−LOX inhibitory activity %=100−Abs sample−Abs blank/Abs negative control−Abs blank×100 (1)

COMPOUND	UNIT DESCRIPTOR	RELATION SYMBOL	IC50
CC1(C)CC[C@]2(CO)CC[C@]3(C)C(=CC[C@@H]4[C@@]5(C)CC[C@H](O)C(C)(C)[C@@H]5CC[C@]43C)[C@@H]2C1 [Compound 7, erythrodiol]	µM	=	147
C[C@]12COCC=C1C[C@H]1c3[nH]c4ccccc4c3CCN1C2=O [Compound 10, latifoliamide C]	µM	=	253
C[C@H]1[C@H](C)CC[C@]2(C)CC[C@]3(C)C(=CC[C@@H]4[C@@]5(C)CC[C@H](O)C(C)(C)[C@@H]5CC[C@]43C)[C@H]12 [Compound 5, α-amyrin (3β-hydroxy-urs-12-en-3-ol)]	µM	>	234
CC1(C)CC[C@]2(C)CC=C3[C@]4(C)CC[C@H]5C(C)(C)[C@@H](O)CC[C@]5(C)[C@H]4CC[C@@]3(C)[C@@H]2C1 [Compound 4, taraxerol]	µM	>	234
C[C@@H]1CC[C@]2(C(=O)O)CC[C@]3(C(=O)O)C(=CCC4[C@@]5(C)CC[C@H](O[C@H]6O[C@H](C)[C@@H](O)[C@H](O)[C@H]6O)C(C)(C)C5CC[C@]43C)C2[C@H]1C (stereo partly drawn) [Compound 6]	µM	>	158
C[C@@H]1CC[C@]2(C(=O)O)CC[C@]3(C(=O)O)C(=CCC4[C@@]5(C)CC[C@H](O[C@@H]6O[C@H](C)[C@@H](O)[C@H](O)[C@H]6O)C(C)(C)C5CC[C@]43C)C2[C@H]1C (stereo partly drawn) [Compound 9]	µM	=	118
